readout_kind: melting point

Sample records with melting point:
* NCCc1c[nH]c(=O)[nH]c1=O | 214 to 220 °C
* CNC(=O)NCCn1c(-c2ccc(CN3C(C)COCC3C)cc2)csc1=Nc1ccc(F)c(C)c1 (stereo not given) | 116 to 119 °C
* CCOc1ccc2ccccc2c1C(=O)N1CCC(NS(=O)(=O)c2cc(S(=O)(=O)c3ccccc3)ccc2C(C)C)CC1 | 164 to 166 °C
* CC(C)(C)OC(=O)CCc1ccc(C[C@H](NC(=O)OC(C)(C)C)C(=O)O)cc1 | 88.5 to 90 °C
* COCCOC(=O)NNC(=O)OCCOC | 71.3 to 76.5 °C
* CCOC(=O)c1cc2cc(C(F)(F)F)ccc2[nH]1 | 134 to 137 °C
* O=C(c1cccs1)c1cc2c(c(Cl)c1Cl)OC(CO)C2 (stereo not given) | 65 to 68 °C
* CC(Oc1ncn(-c2cccc(C(F)(F)F)c2)n1)C(=O)N(C)C (stereo not given) | 126 to 127 °C
* CC(=O)OCCOC(=O)C1=C(C)NC(C)=C([N+](=O)[O-])C1c1ccccc1Cl (stereo not given) | 158 to 160 °C

# next molecule below
Memo: CCCn1c2c(c3ccccc3c1=O)C(=O)c1ccccc1-2 , reported melting point: 166 to 167 °C
